- Species: Rattus norvegicus
- Test protocol: Open TG-GATES - Regimen: Single
- Type: toxicity, organism-based, Sprague-Dawley
- Set-up: regimen Single, gender Male, age 6 weeks
- Test conditions: in vivo, po, 0 mg/kg, 9 h, tissue Plasma, route gavage, dose level Control
Listing of entries alongside the reported TP.
Quantity name: TP

>>> result("CCCNC(=O)NS(=O)(=O)c1ccc(Cl)cc1 [CHLORPROPAMIDE]")
"5.4 g/dL"
>>> result("O=C(CCCN1CCC(O)(c2ccc(Cl)cc2)CC1)c1ccc(F)cc1")
"5.5 g/dL"
>>> result("CC1=C(/C=C/C(C)=C/C=C/C(C)=C/CO)C(C)(C)CCC1")
"5.4 g/dL"
>>> result("NNC(=O)c1ccncc1")
"5.4 g/dL"
>>> result("CN1C(=O)CN=C(c2ccccc2)c2cc(Cl)ccc21")
"5.5 g/dL"
>>> result("CC/C(=C(\\c1ccccc1)c1ccc(OCCN(C)C)cc1)c1ccccc1")
"5.3 g/dL"
